Answer each item with its documented melting point.

# input molecule: `CCOC(=O)c1ccc(N(N)C(=O)OC(C)(C)C)cc1` ; wanted: its melting point
74 °C

# input molecule: CC(=O)NC(Cc1c[nH]c2ccccc12)C(=O)C=Cc1cc(C(F)(F)F)cc(C(F)(F)F)c1 (configuration not stated) ; wanted: its melting point
68 to 70 °C

# input molecule: `Oc1ccc2nc(-c3ccc(O)c(O)c3)oc2c1` ; wanted: its melting point
282 to 284 °C

# input molecule: O=C1c2cccc([N+](=O)[O-])c2C2CC3(CCN12)SCCS3 (configuration not stated) ; wanted: its melting point
185 °C

# input molecule: `COc1cccc([C@H]2O[C@H](CC(=O)Nc3ccsc3C(=O)O)C(=O)N(CC(C)(C)CO)c3ccc(Cl)cc32)c1OC` ; wanted: its melting point
154 to 155 °C

# input molecule: `CCCN1CC(C)=C(C)C2=C1N1CN(OC)C=C1C=N2` ; wanted: its melting point
91 to 92.5 °C

# input molecule: `NNc1c(F)c(F)c(C(F)(F)F)c(F)c1Cl` ; wanted: its melting point
91 to 92 °C

---

readout_name: melting point

# input compound: `CC(=O)NC[C@H]1CN(c2cc(F)c(N3CCC(O)(COCC(F)(F)F)CC3)c(F)c2)C(=O)O1` ; wanted: its melting point
182 to 184 °C

# input compound: `O=C(c1cccnc1)C1COCOC1` ; wanted: its melting point
91 to 100 °C

# input compound: `COC(=O)C=Cc1cc(O)c(O)c([N+](=O)[O-])c1` ; wanted: its melting point
186 to 187 °C

# input compound: CC1(Cl)CSC2C(NC(=O)Cc3ccccc3)C(=O)N2C1C(=O)OCc1ccc([N+](=O)[O-])cc1 (configuration not stated) ; wanted: its melting point
134 to 136 °C

# input compound: `CCOC(=O)/C=C/c1ccc(-c2nc3c(=O)n(CC4CCCCC4)c(=O)n(CC4CCCCC4)c3[nH]2)cc1` ; wanted: its melting point
> 300 °C

# input compound: CCn1c(=O)c2c(ncn2CCCCC2CO2)n(CC)c1=O (configuration not stated) ; wanted: its melting point
58 to 59 °C

# input compound: `CCc1cccc(NC(=O)c2nnn[nH]2)c1O` ; wanted: its melting point
185 to 187 °C

# input compound: CCOC(=O)C1CCc2[nH]c3ccc(OC(F)(F)F)cc3c2C1 (configuration not stated) ; wanted: its melting point
131 to 132 °C

# input compound: `COc1c(SCCCN2CCC(Cc3ccccc3)CC2)ccnc1CSc1nc2ccccc2[nH]1` ; wanted: its melting point
73 to 75 °C

# input compound: `C[C@@H](S[C@H]1CO[C@H](c2ccc(C(=O)Nc3ccncc3)cc2)OC1)[C@](O)(Cn1cncn1)c1ccc(F)cc1F` ; wanted: its melting point
133 °C

# input compound: `CCOC(=O)c1c(SCOC)nc2c(F)c(F)c(F)cc2c1O` ; wanted: its melting point
91 to 94 °C

# input compound: CC(C)C12OC1C1OC13C1(C)CCC4=C(COC4=O)C1CC1OC13C2O (configuration not stated) ; wanted: its melting point
226 to 228 °C

---

readout_name: melting point

# input compound: `CN(C)c1ncc(-c2cc(Cl)cc(Cl)c2Cl)c(N)n1` ; wanted: its melting point
145 to 147 °C

# input compound: O=S(Cc1cn(C23CC4CC(CC(C4)C2)C3)nn1)c1cc(Cl)ccc1Cl (configuration not stated) ; wanted: its melting point
125 to 128 °C

# input compound: `CSc1nnc(-c2ccco2)s1` ; wanted: its melting point
128 °C

# input compound: `CC(=O)c1cc(Br)c(OP(=O)(O)O)c(Br)c1` ; wanted: its melting point
149 to 154 °C

# input compound: `O=C(c1ccc(CCCCc2ccccc2)cc1)N(O)Cc1ccccc1` ; wanted: its melting point
83.5 to 85 °C

# input compound: `CCCCc1oc2ccccc2c1C(=O)NCc1ccc2c(-c3ccccc3)c(OCc3nnn[nH]3)ccc2c1` ; wanted: its melting point
192 to 196 °C

# input compound: `N#Cc1cc(Sc2ccc3ccccc3c2)ccc1[N+](=O)[O-]` ; wanted: its melting point
139 to 140 °C

# input compound: `O=C(O)c1cc(-c2ccc3c(c2)CCO3)nn(Cc2ccc(F)cc2)c1=O` ; wanted: its melting point
215 to 218 °C

# input compound: CCSc1ccc(-c2ccccn2)c2c1C(=O)CC(C)C2 (configuration not stated) ; wanted: its melting point
120 to 122 °C

# input compound: CCOc1ccccc1C(C)CC(=O)Nc1sc2c(c1C#N)CCNC2 (racemic) ; wanted: its melting point
111 to 115 °C

# input compound: `COC(=O)CNC(=O)c1cccc(NC(=O)CCl)c1` ; wanted: its melting point
122 to 124 °C

# input compound: `Fc1cc(N=C2NCCN2)c(F)c(F)c1F` ; wanted: its melting point
141 to 143 °C

# input compound: `COc1ccc(Br)c(C(=O)N2CCN(S(=O)(=O)c3c(F)cccc3F)CC2)c1` ; wanted: its melting point
154 °C

# input compound: `COc1ccc(NN=C(Sc2ccc(C)c(C)c2)C(C)=O)cc1` ; wanted: its melting point
138 to 141 °C

# input compound: CCOC(=O)C(CC(=O)c1ccc2cc(OC)ccc2c1)C(=O)c1ccccc1 (configuration not stated) ; wanted: its melting point
136 to 137 °C

# input compound: `Cc1oc(-c2ccco2)nc1COc1ccc(Cn2cc(CCC(=O)O)c(-c3ccc(C(F)(F)F)cc3)n2)cc1` ; wanted: its melting point
92 to 93 °C

# input compound: `CCN1CC(=O)Nc2cc(Nc3ncc(Cl)c(Nc4ccccc4S(=O)(=O)N(C)C)n3)c(OC)cc2C1` ; wanted: its melting point
175 °C

# input compound: CC(C)(C)OC(=O)NC1CCCCCC=CC2CC2(C(=O)NS(=O)(=O)C2CC2)NC(=O)C2CC(OC(=O)c3ccc(-n4cccn4)cc3)CN2C1=O (configuration not stated) ; wanted: its melting point
167 to 169 °C

# input compound: CCC(C)COc1ccc(-c2ccc(O)cc2)cc1Br (configuration not stated) ; wanted: its melting point
75 to 76.5 °C

# input compound: CC(C)(C)OC(=O)NCC(N)c1c[nH]c2cc(Br)ccc12 (configuration not stated) ; wanted: its melting point
80 °C

# input compound: `CCc1noc(-c2cn(-c3cc(OC)ccc3Cl)cn2)n1` ; wanted: its melting point
67 to 69 °C

# input compound: `Cc1cc2cnnc(Cl)c2n1Cc1ccccc1` ; wanted: its melting point
152 to 156 °C

# input compound: `CCC(C#N)=C1CCN(c2ccc(N3C[C@H](CNC(C)=O)OC3=O)cc2F)CC1` ; wanted: its melting point
185 to 186 °C

# input compound: `CNc1nnc(-c2ccccc2)c(=O)n1NC` ; wanted: its melting point
150 to 151 °C

# input compound: `CN1C(=O)[C@H](NC(=O)/C=C/c2ccc(C(F)(F)F)cc2)N=C(c2ccccc2)c2ccccc21` ; wanted: its melting point
133 to 137 °C

# input compound: `CCN(CC)C(=O)CCc1nc(-c2ccccc2Cl)nc2ccccc12` ; wanted: its melting point
90 °C

# input compound: `CCOC(=O)c1cc(OCC)c(C(=O)OCC)c(OCC)c1` ; wanted: its melting point
142 to 144 °C

# input compound: `Cc1ccc2c(c1)c(O)c(C(=O)NC1CCCCC1)c(=O)n2C` ; wanted: its melting point
218 °C

# input compound: `O=C(O)c1ccc(NCCCCCCCCCCc2ccccc2)cc1` ; wanted: its melting point
80 to 87 °C

# input compound: `CCCC(=O)NCCc1c[nH]c2cc(Cl)c(OC)cc12` ; wanted: its melting point
98 to 98.5 °C

# input compound: `COc1c(Cl)ccc(-c2cc(N)c(Cl)c(C(=O)NOC(C)(C)C)n2)c1F` ; wanted: its melting point
184 to 187 °C

# input compound: `CC(=O)Oc1cnccc1CCCOc1cccnc1Cc1cccc(Br)c1` ; wanted: its melting point
122 to 128 °C

# input compound: `COc1ccc(CN(C)CCc2ccc(NC(=O)c3cccc4c(=O)c5cccc(F)c5[nH]c34)c(C)c2)cc1OC` ; wanted: its melting point
125 °C

# input compound: `Cc1nc(-n2cnn(Cc3ccc(C(F)(F)F)o3)c2=O)sc1C(=O)NCc1cccnc1` ; wanted: its melting point
124 to 125 °C

# input compound: CN1C2CCC1C1CN(C(=O)N3c4ccccc4C(=O)Nc4cccnc43)CC12 (configuration not stated) ; wanted: its melting point
218 to 220 °C

# input compound: `CC(=C(F)c1ccccc1)c1ccc2c(c1)C(C)(C)CCC2(C)C` ; wanted: its melting point
100 °C

# input compound: `OCCC12CC(c3ccccc31)c1ccccc12` ; wanted: its melting point
99 to 100 °C
